Tested system: PRMT5-MEP50 enzyme complex (Homo sapiens (Human))
Sequence (O14744 2-637): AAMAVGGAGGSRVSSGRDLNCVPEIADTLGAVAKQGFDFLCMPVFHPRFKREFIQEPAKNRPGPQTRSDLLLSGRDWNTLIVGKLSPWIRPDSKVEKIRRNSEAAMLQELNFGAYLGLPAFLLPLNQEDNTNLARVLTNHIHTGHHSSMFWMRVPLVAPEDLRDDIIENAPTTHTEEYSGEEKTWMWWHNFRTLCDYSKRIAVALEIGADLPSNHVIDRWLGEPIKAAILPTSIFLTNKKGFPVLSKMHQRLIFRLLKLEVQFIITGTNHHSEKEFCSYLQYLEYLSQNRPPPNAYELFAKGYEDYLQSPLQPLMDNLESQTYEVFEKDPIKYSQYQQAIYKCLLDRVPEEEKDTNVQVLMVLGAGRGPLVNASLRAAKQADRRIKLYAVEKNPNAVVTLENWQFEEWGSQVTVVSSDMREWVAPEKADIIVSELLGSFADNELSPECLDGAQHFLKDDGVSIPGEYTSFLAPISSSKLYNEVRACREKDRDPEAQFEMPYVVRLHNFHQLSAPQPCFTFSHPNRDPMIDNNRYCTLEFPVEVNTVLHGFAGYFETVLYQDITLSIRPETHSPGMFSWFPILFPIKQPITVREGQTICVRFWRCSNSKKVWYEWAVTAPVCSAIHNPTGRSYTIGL
Sequence (Q9BQA1 2-342 partner): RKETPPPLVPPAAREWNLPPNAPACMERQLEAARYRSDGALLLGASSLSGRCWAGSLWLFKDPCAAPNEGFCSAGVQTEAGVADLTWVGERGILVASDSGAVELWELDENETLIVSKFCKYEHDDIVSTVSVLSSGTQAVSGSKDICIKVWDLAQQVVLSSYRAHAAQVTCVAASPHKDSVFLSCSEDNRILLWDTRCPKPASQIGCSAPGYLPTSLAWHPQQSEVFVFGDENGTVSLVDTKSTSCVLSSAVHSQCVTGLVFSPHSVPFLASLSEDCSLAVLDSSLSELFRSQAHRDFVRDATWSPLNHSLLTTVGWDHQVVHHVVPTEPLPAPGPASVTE
Procedure summary: PRMT5 enzyme activity in vitro assay (methylation of histone H4R3, ELISA absorbance at 450 nm)
Format: biochemical
Test parameters: SAM, histone H4 peptide, room temperature 2 hours, 8 points from 10 μM to 0.128 nM
Value type: IC50

{"Compound": "CC(=O)N1CC(Oc2ccc3c(c2)N(C)CCN(C[C@H](O)CN2CCc4ccccc4C2)C3=O)C1", "Tested system": "PRMT5-MEP50 enzyme complex (Homo sapiens (Human))", "Value type": "IC50", "Value": "100 to 1000 nM"}

// batch mode: one IC50 value per listed entry
1. CC1(C)CN(C[C@H](O)CN2CCc3ccccc3C2)C(=O)c2ccc(CN3CC4(COC4)C3)cc2O1
2. O=C1c2ccc(OC3CCN(CCF)CC3F)cc2OCCN1C[C@H](O)CN1CCc2ccccc2C1 (stereo partly shown)
3. CC1(CN2CCC(Oc3ccc4c(c3)OCCN(C[C@H](O)CN3CCc5ccccc5C3)C4=O)CC2)COC1
4. COCCN1CCC(Oc2ccc3c(c2)O[C@H](C)CN(C[C@H](O)CN2CCc4ccccc4C2)C3=O)CC1
5. O=C(c1ccc2c(c1)OCCN(C[C@H](O)CN1CCc3ccccc3C1)C2=O)N1CCCCC1
6. O=C1c2ccncc2OCCN1C[C@H](O)CN1CCc2ccccc2C1
7. O=C1c2ccc(CN3CCC(F)(F)C3)cc2OCCN1C[C@H](O)CN1CCc2ccccc2C1
8. CCN1CCC(Oc2ccc3c(c2)OCCN(C[C@H](O)CN2CCc4ccccc4C2)C3=O)CC1

Out:
1: 100 to 1000 nM; 2: 100 to 1000 nM; 3: 1 to 100 nM; 4: 100 to 1000 nM; 5: 100 to 1000 nM; 6: 100 to 1000 nM; 7: 100 to 1000 nM; 8: 1 to 100 nM

###

Tested system: PRMT5-MEP50 enzyme complex (Homo sapiens (Human))
Procedure summary: PRMT5 enzyme activity in vitro assay (methylation of histone H4R3, ELISA absorbance at 450 nm)
Test parameters: SAM, histone H4 peptide, room temperature 2 hours, 8 points from 10 μM to 0.128 nM
Value type: IC50

Some molecules with known IC50 results, for comparison:
{"Molecule": "O=C1c2ccc(OCC3CCCO3)cc2OCCN1C[C@H](O)CN1CCc2ccccc2C1 (stereo partly drawn)", "IC50": "100 to 1000 nM"}
{"Molecule": "CN1CCN(C[C@H](O)CN2CCc3ccccc3C2)C(=O)c2ccc(OCc3ccncc3F)cc21", "IC50": "1 to 100 nM"}

For this molecule ( O=C1c2ccc(OCc3cccnc3)cc2OCCN1C[C@H](O)CN1CCc2ccccc2C1 ), measured IC50 is 100 to 1000 nM

###

Tested system: PRMT5-MEP50 enzyme complex (Homo sapiens (Human))
Procedure summary: PRMT5 enzyme activity in vitro assay (methylation of histone H4R3, ELISA absorbance at 450 nm)
Test parameters: SAM, histone H4 peptide, room temperature 2 hours, 8 points from 10 μM to 0.128 nM
Description: Method for Measuring Enzyme Activity In vitro assay: PRMT5-MEP50 enzyme complex, cofactor S-adenosylmethionine (SAM) and histone H4 peptide were reacted in vitro, and methylation of arginine (H4R3)—which is the third amino acid of histone H4—was measured in order to measure the enzyme activity of PRMT5. […]
Could you please report measured IC50 for the items listed next?

Some compounds with known IC50 results, for comparison:
{"Compound": "CC(C)N1CCC(Oc2ccc3c(c2)OCCN(C[C@H](O)CN2CCc4ccccc4C2)C3=O)CC1 [Example 89]", "Tested system": "PRMT5-MEP50 enzyme complex (Homo sapiens (Human))", "IC50": "1 to 100 nM"}
{"Compound": "CC(O)CN1CCC(Oc2ccc3c(c2)OCCN(C[C@H](O)CN2CCc4ccccc4C2)C3=O)CC1 (stereo partly shown) [Example 212]", "Tested system": "PRMT5-MEP50 enzyme complex (Homo sapiens (Human))", "IC50": "100 to 1000 nM"}
{"Compound": "CC(c1ccc2c(n1)OC(C)(C)CN(C[C@H](O)CN1CCc3ccccc3C1)C2=O)N1CC2(COC2)C1 (stereo partly shown) [Example 247]", "Tested system": "PRMT5-MEP50 enzyme complex (Homo sapiens (Human))", "IC50": "100 to 1000 nM"}
{"Compound": "CC(=O)N1CC[C@H](Oc2ccc3c(c2)N(C)CCN(C[C@H](O)CN2CCc4ccccc4C2)C3=O)C1 [Example 124]", "Tested system": "PRMT5-MEP50 enzyme complex (Homo sapiens (Human))", "IC50": "100 to 1000 nM"}
{"Compound": "Cc1ccc2c(c1)OCCN(C[C@H](O)CN1CCc3ccccc3C1)C2=O [Example 10]", "Tested system": "PRMT5-MEP50 enzyme complex (Homo sapiens (Human))", "IC50": "100 to 1000 nM"}

// batch mode: one IC50 value per listed entry
1. CC(=O)N1CCC(Oc2ccc3c(c2)N(C)CCN(C[C@H](O)CN2CCc4ccccc4C2)C3=O)CC1 [Example 121]
2. CCC(=O)c1ccc2c(c1)OCCN(C[C@H](O)CN1CCc3ccccc3C1)C2=O [Example 214]
3. C[C@@H]1CN(C[C@H](O)CN2CCc3ccccc3C2)C(=O)c2ccc(OC3CCN(CC(C)(C)O)CC3)cc2O1 [Example 220]
4. CC1(C)CN(C[C@H](O)CN2CCc3ccccc3C2)C(=O)c2ccc(C(=O)N3CCN4CCCC4C3)cc2O1 (stereo partly shown) [Example 210]
5. O=C1c2ccc(CN3CCC[C@@H]3CO)cc2OCCN1C[C@H](O)CN1CCc2ccccc2C1 [Example 47]
6. CC1CCN(Cc2ccc3c(c2)OCCN(C[C@H](O)CN2CCc4ccccc4C2)C3=O)CC1 [Example 27]

Out:
1: 100 to 1000 nM; 2: 100 to 1000 nM; 3: 100 to 1000 nM; 4: 100 to 1000 nM; 5: 100 to 1000 nM; 6: 1 to 100 nM

// batch mode: one IC50 value per listed entry
1. CCN1CCCC(Oc2ccc3c(c2)OCCN(C[C@H](O)CN2CCc4ccccc4C2)C3=O)C1 (stereo partly shown) [Example 69]
2. CC(=O)N1CCC(Oc2ccc3c(c2)OCCN(C[C@H](O)CN2CCc4ccccc4C2)C3=O)C1 (stereo partly shown) [Example 80]
3. CC(c1ccc2c(c1)OCCN(C[C@H](O)CN1CCc3ccccc3C1)C2=O)N1CC2(COC2)C1 (stereo partly shown) [Example 222]
4. O=C1c2ccc(CCC(F)(F)F)cc2OCCN1C[C@H](O)CN1CCc2ccccc2C1 [Example 13]
5. CC1COCC(C)N1C(=O)c1ccc2c(c1)OC(C)(C)CN(C[C@H](O)CN1CCc3ccccc3C1)C2=O (stereo partly shown) [Example 205]
6. O=C1c2ccc(CN3CC4CC3CO4)cc2OCCN1C[C@H](O)CN1CCc2ccccc2C1 (stereo partly shown) [Example 55]
7. O=C1c2ccc(OC3CCN(C(=O)C(F)F)CC3)cc2OCCN1C[C@H](O)CN1CCc2ccccc2C1 [Example 160]
8. CC(=O)N1C2CCC1CC(Oc1ccc3c(c1)OCCN(C[C@H](O)CN1CCc4ccccc4C1)C3=O)C2 (stereo partly shown) [Example 173]

Out:
["1 to 100 nM", "100 to 1000 nM", "100 to 1000 nM", "1 to 100 nM", "100 to 1000 nM", "100 to 1000 nM", "1 to 100 nM", "1 to 100 nM"]
